Tested on: S. typhimurium GC 2172
PROTOCOL_TEXT: MIC, broth microdilution
EXPERIMENTAL_PARAMETERS: Salmonella enterica, TYPHIMURIUM, read-out: MINIMAL INHIBITORY CONCENTRATION MIC, pre-incubated in Mouse Serum
PARAMETER_MEASURED: MIC (µg/mL)
One number for each entry, in µg/mL.

Solved cases below.
MOLECULE: CCCCN(CC(=O)Nc1cc(N(C)C)c2c(c1O)C(=O)C1=C(O)[C@]3(O)C(=O)C(C(N)=O)=C(O)[C@@H](N(C)C)[C@@H]3C[C@@H]1C2)C(=O)OCOC(=O)c1ccc(-c2ccccc2)cc1 [Example 21]
MIC (µg/mL): 4
--
MOLECULE: CCCCN(CC(=O)Nc1cc(N(C)C)c2c(c1O)C(=O)C1=C(O)[C@]3(O)C(=O)C(C(N)=O)=C(O)[C@@H](N(C)C)[C@@H]3C[C@@H]1C2)C(=O)OCOC(=O)c1cc(C)cc(C)c1 [Example 22]
MIC (µg/mL): 8
--
MOLECULE: Cc1ccc(C(=O)OCOC(=O)N(CC(=O)Nc2cc(N(C)C)c3c(c2O)C(=O)C2=C(O)[C@]4(O)C(=O)C(C(N)=O)=C(O)[C@@H](N(C)C)[C@@H]4C[C@@H]2C3)C(C)(C)C)cc1 [Example 47]
MIC (µg/mL): 4
--
MOLECULE: CN(C)c1cc(NC(=O)CN(C(=O)OCOC(=O)C2CCCC2)C(C)(C)C)c(O)c2c1C[C@H]1C[C@H]3[C@H](N(C)C)C(O)=C(C(N)=O)C(=O)[C@@]3(O)C(O)=C1C2=O [Example 46]
MIC (µg/mL): 2

CCCN(CC(=O)Nc1cc(N(C)C)c2c(c1O)C(=O)C1=C(O)[C@]3(O)C(=O)C(C(N)=O)=C(O)[C@@H](N(C)C)[C@@H]3C[C@@H]1C2)C(=O)OCOC(=O)c1ccc(-c2ccccc2)cc1 [Example 24] yielded MIC of 8
